Entry source: paper PMC9482650

target: FRMPD2_2, Q68DX3; test: holdup assay; parameters: key: below the threshold = too weak to quantify, mostly under pKd 3.1 to 4; settings: plain residues with an end cap or a label only (N-terminal biotin on a linker: ahx)
Sequence (Q68DX3 944-1038): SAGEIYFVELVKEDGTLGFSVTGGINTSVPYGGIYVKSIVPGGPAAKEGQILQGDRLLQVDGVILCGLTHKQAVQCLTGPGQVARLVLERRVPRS
Readout: pKd

> print(dat)
                        binder            obs.value
1     TESNLQTSSC [CGN, Q9P2M7]  below the threshold
2   QDEKVKESYV [ABCA1, O95477]                 5.31
3  TEAKLTETNA [MYO18A, Q92614]  below the threshold
4   APSRKLNTEI [TIAM1, Q13009]  below the threshold
5    QNTDDVQTSF [ACE2, Q9BYF1]  below the threshold
6  HTHSYIETHV [CNKSR2, Q8WXI2]                 4.83
7    QPRTWLQSPV [RTKN, Q9BST9]  below the threshold
8  TQKFRASTAL [FRMPD1, Q5SYB0]  below the threshold
9  EKQAKGDTEF [CACYBP, Q9HB71]  below the threshold
